Molecular target: human GLP-1R (Homo sapiens, UniProt P43220, G168S)
Sequence (P43220 24-463 G168S limits assumed): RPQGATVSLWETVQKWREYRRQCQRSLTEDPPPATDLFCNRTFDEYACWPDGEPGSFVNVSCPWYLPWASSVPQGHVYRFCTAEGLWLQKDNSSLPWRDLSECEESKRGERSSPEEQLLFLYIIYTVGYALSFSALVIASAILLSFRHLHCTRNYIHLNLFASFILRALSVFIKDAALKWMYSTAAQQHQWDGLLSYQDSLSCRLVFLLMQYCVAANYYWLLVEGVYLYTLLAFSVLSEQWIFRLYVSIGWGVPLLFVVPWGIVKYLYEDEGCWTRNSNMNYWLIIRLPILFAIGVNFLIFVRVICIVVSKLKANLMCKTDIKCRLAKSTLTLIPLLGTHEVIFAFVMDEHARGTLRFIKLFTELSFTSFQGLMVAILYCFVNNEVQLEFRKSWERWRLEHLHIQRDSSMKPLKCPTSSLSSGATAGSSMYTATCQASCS
Assay: CHO GLP-1R Clone H6—Assay 1: HTRF cAMP cell-based functional agonist assay (high GLP-1R density)
Conditions: read-out: Assay 1 Emax (%), CHO GLP-1R Clone H6; relative to saturating concentration of full agonist GLP-1 (1 μM); arithmetic mean
Reported Emax is given for each of the following compounds.
# unit: % | format: bare number

Here is how some compounds turned out for Emax.
COMPOUND: C[C@H]1CN(c2cccc(OCc3ccc(C#N)cc3F)n2)CCN1Cc1nc2ccc(C(=O)O)cc2n1Cc1cocn1 [Example 10A-14]
ENDPOINT: Emax
MEASURED_NUMBER: 74

COMPOUND: C[C@H]1CN(c2cccc(OCc3ccc(C#N)cc3F)n2)CCN1Cc1nc2ccc(C(=O)O)cc2n1C[C@@H]1CCO1 [Example 10A-47]
ENDPOINT: Emax
MEASURED_NUMBER: 80

COMPOUND: O=C(O)c1ccc2nc(CN3CCC(c4cccc(OCc5ccc(Cl)cc5F)n4)CC3)n(CCC(F)(F)F)c2c1 [Example 11A-73]
ENDPOINT: Emax
MEASURED_NUMBER: 68

COMPOUND: O=C(O)c1cc2c(cn1)nc(CN1CCC(c3cccc(OCc4ccc(Cl)cc4F)n3)CC1)n2Cc1ncco1 [Example 2A-06]
ENDPOINT: Emax
MEASURED_NUMBER: 82

COMPOUND: COCCn1c(CN2CC[C@@H](c3cccc(OCc4ccc(Cl)cc4F)n3)[C@@H](O)C2)nc2ccc(C(=O)O)cc21 (racemic) [Example 1A-24]
ENDPOINT: Emax
MEASURED_NUMBER: 84

Any idea what its Emax is? The compound is Cn1cnc(Cn2c(CN3CCC(c4cccc(OCc5ccc(Cl)cc5F)n4)CC3)nc3ccc(C(=O)O)cc32)c1 [Example 10A-30]
71

Any idea what its Emax is? The compound is C[C@H]1CN(c2cccc(OCc3ccc(C#N)cc3F)n2)CCN1Cc1nc2ccc(C(=O)O)cc2n1Cc1cnnn1C [Example 10A-23]
76

Any idea what its Emax is? The compound is Cc1ccn(CCn2c(CN3CCC(c4cccc(OCc5ccc(Cl)cc5F)n4)CC3)nc3ccc(C(=O)O)cc32)n1 [Example 11A-31]
76

Any idea what its Emax is? The compound is Cn1c(CN2CCC(c3cccc(OCc4ccccc4F)n3)CC2)nc2ccc(C(=O)O)cc21 [Example 9A-06]
82
